System: MS2 coat protein
Test: apparent KD of MS2 coat protein; designed switch direction (-1 OFF switch, 1 ON switch): -1; higher = weaker reporter binding
Settings: input ligand: FMN 200 uM
Cut-off 20 nM on apparent KD of MS2 coat protein, inclusive. At or above means TRUE; below means FALSE.

Worked examples follow.
{"columns": ["sequence.content", "label.value"],
 "data": [
  ["GACAGCGGAGGAUAUGCCGUAGAUUACAUGAGGAUCACCCAUGUGGGCUGUAAGUAAUAGGCAGAAGGCUGCCGUU [Eternabot (Original) Solution 33] (Eterna round: R97, puzzle: Exclusion 5)", "TRUE"],
  ["ACAUGAGGAUCACCCAUGUCUGGCUGGUCUGCUCCGGCUGUUGAGGAUAUAGUCCGGUGUUCGCGCUAGAAGGCGAGGGCUGGA [Aenatbe mod 42] (Eterna round: R96, puzzle: Exclusion NG 3)", "TRUE"],
  ["UGUAUACAUGAGGAUCACCCAUGUAAGGAUAUACAUCAGAUCGACACCGGACUGGCCCGUAGAAGGUGCGUGGA [Eternabot (L2) Solution 67] (Eterna round: R97, puzzle: Exclusion 1)", "TRUE"]
]}

input: Assess whether reported apparent KD of MS2 coat protein for GCAGCAACUCUAAUUAAAACCACAUGAGGAUCACCCAUGUCUCAGGAUAUGGUCUGGAUUACAGGCCAGAAGGGAGAAAGCUGC [Eli exng3 - 051] (Eterna round: R96, puzzle: Exclusion NG 3) sits at 20 nM or higher.
output: FALSE

input: Now this one: GGGCUCGGAGGAUAUACAAUGGGCUCGGGAAAUCGGGCUCUACAUGAGGAUCACCCAUGUAGAAGGUCGGGCUC [-38.9, -35.6 kcal A 24%, 4,4] (Eterna round: R97, puzzle: Exclusion 2)
output: FALSE

====

Tested on: K4 kissing-loop RNA reporter;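 also: bound reporter read as fluorescence of individual clusters on recovered sequencing chips by microscopy, with normalized cluster intensities fitted with a binding model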
Assay: apparent KD of K4 kissing-loop reporter; higher = weaker reporter binding
Settings: Eterna round: R107; input ligand: none
parameter.measured: apparent KD of K4 kissing-loop reporter (nM)
Answers are plain numbers, in nM.

{"columns": ["sequence.content", "target", "unit.annotation", "apparent KD of K4 kissing-loop reporter"],
 "data": [
  ["GCUAUGGUAGGAAGGAGCGCUUAAUUACUAAUAAGAGUGAUGUUCGAUAGUAGGUAUUUAUAGCAGGUAGGUCGCCUACUAUAGC [KL-Arg B23]", "K4 kissing-loop RNA reporter", "nM", 176],
  ["GCACUGAAGUGAUGUUUUUGUGCACGUUGAAAGGAUAUCUGCUUGUAGAGAAGGUUCUGUUUGUGCGGAGCGGGCGUUACCGGCA [theeternabot_exclusion_KL_FMN_A_32]", "K4 kissing-loop RNA reporter", "nM", 310],
  ["AUUAAUUUCAGAGGAUAUCGUAUUUAUAUUAUAUCUUUCCAUAUUUGCAGUGAUGUUGCAUUAAUUCGAGAAGGCUGAUUUAUAA [JR_Nu_ExcFMNB_Sub024]", "K4 kissing-loop RNA reporter", "nM", 60.4]
]}

Answer for every listed entry: what is its apparent KD of K4 kissing-loop reporter? The entries follow.
1. AAACUUGCAGUGAUGUUGCAAGUAGGUGAUACCAGCAUCGAAAGAUGCCCUUGGCAGCACCAAAACAUCACUUAGGUGCUGUCUA [(H1)-(H2)-(T1)-(T2)-(H)'-(T)'_Design6]
2. AACCGAGGUAAUCCACAAUGAUUAGAAGAUACCAGAUAUAUAAAUAUCCCUUGGCAGCUUUGAAUGAGUGAUGUUCAUUUGUCAU [KL-SSTheo-A11]

output:
1. 622
2. 159

input: Fill blank: measured apparent KD of K4 kissing-loop reporter of the sequence GUGCAGUGAUGUUGCACGAGGAAAGACGAUACCAGCCGCAAAUGUGGCCCUUGGCAGCGUGGGCUAGCACAAAAUAUGCUAGUCU [Ricegeusat] is ____.
output: 119
